Each recorded value in this set is attributed to paper PMC3806475.

measurement kind: IC50

(Q) Lookup: IC50 / UniProt:P00533 / `COc1cc(-c2nc(-c3c[nH]c4ccccc34)c[nH]c2=O)cc(OC)c1OC`
Sequence (P00533 25-1210): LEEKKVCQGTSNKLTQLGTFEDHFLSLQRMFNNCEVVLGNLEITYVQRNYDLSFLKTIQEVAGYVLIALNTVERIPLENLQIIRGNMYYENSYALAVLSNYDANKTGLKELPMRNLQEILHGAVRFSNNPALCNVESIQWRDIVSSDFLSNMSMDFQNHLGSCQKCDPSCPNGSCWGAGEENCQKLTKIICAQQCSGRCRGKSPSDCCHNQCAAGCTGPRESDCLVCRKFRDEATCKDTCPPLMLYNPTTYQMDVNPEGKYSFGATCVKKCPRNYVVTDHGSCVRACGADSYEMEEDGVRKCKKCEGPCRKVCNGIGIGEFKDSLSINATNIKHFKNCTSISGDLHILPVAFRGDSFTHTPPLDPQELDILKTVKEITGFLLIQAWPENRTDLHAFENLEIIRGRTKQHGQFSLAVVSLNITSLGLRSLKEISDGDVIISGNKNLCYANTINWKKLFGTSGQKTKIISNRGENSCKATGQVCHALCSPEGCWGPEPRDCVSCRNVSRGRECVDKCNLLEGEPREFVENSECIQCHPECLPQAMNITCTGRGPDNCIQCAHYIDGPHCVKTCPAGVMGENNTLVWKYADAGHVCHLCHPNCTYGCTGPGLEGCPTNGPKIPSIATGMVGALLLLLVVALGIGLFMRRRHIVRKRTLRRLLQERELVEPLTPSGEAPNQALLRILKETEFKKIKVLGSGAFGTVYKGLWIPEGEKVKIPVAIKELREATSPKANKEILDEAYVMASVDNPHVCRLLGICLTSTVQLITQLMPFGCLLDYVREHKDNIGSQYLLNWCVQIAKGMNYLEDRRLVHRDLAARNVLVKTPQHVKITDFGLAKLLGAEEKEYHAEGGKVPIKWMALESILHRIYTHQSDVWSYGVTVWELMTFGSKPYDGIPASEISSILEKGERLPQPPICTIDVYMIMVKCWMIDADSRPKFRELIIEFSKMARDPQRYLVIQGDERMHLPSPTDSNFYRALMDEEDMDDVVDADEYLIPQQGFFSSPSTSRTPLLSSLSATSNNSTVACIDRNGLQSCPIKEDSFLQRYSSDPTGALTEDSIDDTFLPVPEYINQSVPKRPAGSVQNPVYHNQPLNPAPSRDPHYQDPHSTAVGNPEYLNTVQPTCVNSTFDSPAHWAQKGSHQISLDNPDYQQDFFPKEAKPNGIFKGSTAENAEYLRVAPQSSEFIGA
(A) > 100 µM

###

target entity: Aurora-B (Homo sapiens)
Sequence (Q96GD4 whole entry): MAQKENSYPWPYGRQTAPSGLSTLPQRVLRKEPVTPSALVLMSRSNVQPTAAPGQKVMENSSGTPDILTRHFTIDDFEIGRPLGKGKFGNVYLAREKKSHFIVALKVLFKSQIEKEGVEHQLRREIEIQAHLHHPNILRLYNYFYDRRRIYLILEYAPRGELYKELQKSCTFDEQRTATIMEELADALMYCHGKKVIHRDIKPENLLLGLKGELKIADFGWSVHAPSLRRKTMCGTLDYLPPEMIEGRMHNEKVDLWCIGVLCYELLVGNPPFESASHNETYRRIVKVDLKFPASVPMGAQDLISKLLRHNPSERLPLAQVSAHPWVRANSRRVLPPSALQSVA
assay info: 33PanQinase protein kinase activity assay
Type: biochemical
measurement context: recombinant kinase, 1 µM ATP
measurement kind: IC50

(Q) Lookup: IC50 / Aurora-B (Homo sapiens) / `COc1cc(-c2nc(-c3c[nH]c4ccccc34)c[nH]c2=O)cc(OC)c1OC`
(A) > 100 µM

###

target entity: EPHB4 (Homo sapiens)
Sequence (P54760 16-987): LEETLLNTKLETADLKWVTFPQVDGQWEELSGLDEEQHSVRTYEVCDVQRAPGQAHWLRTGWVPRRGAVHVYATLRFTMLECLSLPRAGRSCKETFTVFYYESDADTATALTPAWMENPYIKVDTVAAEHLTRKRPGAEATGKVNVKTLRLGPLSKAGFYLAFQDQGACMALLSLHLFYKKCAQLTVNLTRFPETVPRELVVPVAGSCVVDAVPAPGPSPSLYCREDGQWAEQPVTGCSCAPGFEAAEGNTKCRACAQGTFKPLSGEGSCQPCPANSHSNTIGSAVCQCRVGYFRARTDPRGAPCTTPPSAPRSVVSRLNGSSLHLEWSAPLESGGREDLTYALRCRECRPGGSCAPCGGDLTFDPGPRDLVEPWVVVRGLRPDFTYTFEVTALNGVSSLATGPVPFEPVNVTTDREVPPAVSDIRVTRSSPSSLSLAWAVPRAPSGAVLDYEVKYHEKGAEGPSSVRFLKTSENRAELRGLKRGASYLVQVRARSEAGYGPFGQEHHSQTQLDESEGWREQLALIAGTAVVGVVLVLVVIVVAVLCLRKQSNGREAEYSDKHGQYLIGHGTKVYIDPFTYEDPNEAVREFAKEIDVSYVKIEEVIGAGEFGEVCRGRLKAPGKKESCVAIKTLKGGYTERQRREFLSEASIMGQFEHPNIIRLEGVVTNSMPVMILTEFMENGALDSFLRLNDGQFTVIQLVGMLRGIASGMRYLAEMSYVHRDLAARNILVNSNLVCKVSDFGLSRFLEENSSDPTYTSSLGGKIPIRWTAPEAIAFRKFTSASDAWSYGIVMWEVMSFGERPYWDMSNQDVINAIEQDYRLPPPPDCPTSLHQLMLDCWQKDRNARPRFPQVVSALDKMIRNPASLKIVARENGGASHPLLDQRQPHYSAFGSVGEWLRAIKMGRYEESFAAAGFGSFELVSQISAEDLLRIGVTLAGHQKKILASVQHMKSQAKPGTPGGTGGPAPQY
assay info: 33PanQinase protein kinase activity assay
Type: biochemical
measurement context: recombinant kinase, 1 µM ATP
measurement kind: IC50

(Q) Looking for the measured IC50 of COc1cc(-c2nc(-c3c[nH]c4ccccc34)c[nH]c2=O)cc(OC)c1OC [Compound 5] , can you help?
(A) > 100 µM
